Test system: EW-7 (Ewing's Sarcoma)
ASSAY_COMMENT: combination Emax (second highest fraction inhibited in the dose matrix, 72 h); higher = more inhibition; extreme values may be limits of the assay
ASSAY_METRIC: combination Emax

Worked cases, answers included:
MOLECULE | combination Emax
Cc1cc2ncnn2cc1Nc1ncc2c(n1)n(C1CCOCC1)c(=O)n2C [AZD7648] + C=CCn1c(=O)c2cnc(Nc3ccc(N4CCN(C)CC4)cc3)nc2n1-c1cccc(C(C)(C)O)n1 [AZD1775] (first compound max 10 µM, partner max 1 µM) | 0.898
COc1cc2ncnc(Nc3ccc(F)c(Cl)c3)c2cc1OCCCN1CCOCC1 [Gefitinib] + CC(C)n1c(=O)n(C)c2cnc3cc(F)c(-c4ccc(OCCCN5CCCCC5)nc4)cc3c21 [AZD1390] (first compound max 10 µM, 7x7, partner max 0.3 µM) | 0.328
CCc1c2c(nc3ccc(O)cc13)-c1cc3c(c(=O)n1C2)COC(=O)[C@]3(O)CC [SN-38] + O=C(c1cc(Cc2n[nH]c(=O)c3ccccc23)ccc1F)N1CCN(C(=O)C2CC2)CC1 [Olaparib] (first compound max 0.3 µM, 7x7, partner max 10 µM) | 0.908
Cc1nc(Nc2ncc(C(=O)Nc3c(C)cccc3Cl)s2)cc(N2CCN(CCO)CC2)n1 [Dasatinib] + CC(=O)Nc1cccc(-n2c(=O)n(C3CC3)c(=O)c3c(Nc4ccc(I)cc4F)n(C)c(=O)c(C)c32)c1 [Trametinib] (first compound max 2 µM, 7x7, partner max 1 µM) | 0.213
Cn1cnc2c(F)c(Nc3ccc(Br)cc3Cl)c(C(=O)NOCCO)cc21 [Selumetinib] + CCN(CCO)CCCOc1ccc2c(Nc3cc(CC(=O)Nc4cccc(F)c4)[nH]n3)ncnc2c1 [AZD2811] (first compound max 10 µM, 7x7, partner max 1 µM) | 0.509
Cn1cnc2c(F)c(Nc3ccc(Br)cc3Cl)c(C(=O)NOCCO)cc21 [Selumetinib] + C[C@@H]1COCCN1C2=NC(=NC(=C2)C3(CC3)[S@](=N)(=O)C)C4=C5C=CNC5=NC=C4 [AZD6738] (first compound max 10 µM, 7x7, partner max 10 µM) | 0.951

stdin: Give recorded combination Emax with EW-7 (Ewing's Sarcoma) for the following molecule: CC1(C)CCC(CN2CCN(c3ccc(C(=O)NS(=O)(=O)c4ccc(NCC5CCOCC5)c([N+](=O)[O-])c4)c(Oc4cnc5[nH]ccc5c4)c3)CC2)=C(c2ccc(Cl)cc2)C1 [Venetoclax] + COc1cc(Nc2ncc3c(n2)-c2ccc(Cl)cc2C(c2c(F)cccc2OC)=NC3)ccc1C(=O)O [Alisertib] (first compound max 1 µM, 7x7, partner max 10 µM)
stdout: 0.932
